Item-by-item account of IC50
Test system: NCI-H1417 cells (human small-cell lung cancer cell lines);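 further: growth of NCI-H1417 cells over 10 days at 37 °C, read as viable-cell luminescence by CellTiter-Glo 2.0, expressed as % of DMSO-only control wells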
Experiment: cells
Details: NCI-H1417, read-out: Cell-Growth Inhibition Test: NCI-H1417 Cells IC50 (nM)
Where a name gives a salt, the structure may show the parent alone.
Write the number in nM without appending the unit.

compound="CC(C)(O)Cn1ccc2cc(-c3ccc(C(=O)N4[C@@H]5CC[C@H]4C[C@@H](N)C5)cc3-c3ccc(C#N)c(F)c3)c(F)c(F)c21 [Example 183]" target_desc="NCI-H1417 cells (human small-cell lung cancer cell lines)" readout_value=1.01
compound="Cc1ccc(-c2ccc(CN3C4CCC3C(N)C4)cc2-c2ccc(C#N)c(F)c2)c(F)c1 (stereo not shown) [Example 283]" target_desc="NCI-H1417 cells (human small-cell lung cancer cell lines)" readout_value=2.1

### Prompt # input compound: CC(C)(O)Cn1ncc2cc(-c3ccc(CN4CC5CNCC5C4)cc3-c3ccc(C#N)c(F)c3)c(F)cc21 (stereo not shown) [Example 297, dihydrochloride] ; wanted: its IC50
### Response 3.8

### Prompt Return reported IC50; argument: CC(C)(O)Cn1ncc2cc(-c3ccc(CN4[C@@H]5CC[C@H]4C[C@@H](N)C5)cc3-c3ccc(C#N)c(F)c3)c(F)cc21 [Example 299, dihydrochloride]
### Response 0.949

### Prompt What measured IC50 goes with Cn1ccc2cc(-c3ccc(C(=O)N4[C@@H]5CC[C@H]4C[C@H](N)C5)cc3-c3ccc(C#N)c(F)c3)ccc21 [Example 18] ?
### Response 4.73

### Prompt Would you mind telling me what IC50 value was observed for CC(C)(O)Cn1ccc2cc(-c3ccc(C(=O)N4[C@@H]5CC[C@H]4C[C@@H](N)C5)cc3-c3ccc(C#N)c(F)c3)c(F)cc21 [Example 136] ?
### Response 2.39

### Prompt So what's the measured IC50 for this one? CCC(O)(CC)Cn1ncc2cc(-c3ccc(C(=O)N4C5CCC4C(N)C5)cc3-c3ccc(C#N)c(F)c3)c(F)cc21 (stereo not shown) [Example 206]
### Response 0.95

### Prompt Please look up its IC50: N#Cc1ccc(-c2cc(C(=O)N3[C@@H]4CC[C@H]3C[C@@H](N)C4)ccc2-c2cc3nnn(CC4(O)CCC4)c3c(Cl)c2F)cc1F [Example 259]
### Response 0.46
